SPOT intensity listing for selected binders.
Study system: Bem1-1, P29366
Sequence (P29366 55-141): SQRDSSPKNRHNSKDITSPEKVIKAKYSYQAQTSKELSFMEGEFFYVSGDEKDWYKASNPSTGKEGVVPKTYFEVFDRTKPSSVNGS
Protocol text: SPOT array
Assay conditions: median of control spots 4282
Enter the number alone.

1. PSPSSSPPPIPKTAN ... 1

Query: SPOT intensity; subject: RRSKSLPITPKSIFN
0

Query: SPOT intensity; subject: SRQAIPPPVPNRPGG
1

Query: SPOT intensity; subject: MKRSRPSRSIPYTTP
0

Query: SPOT intensity; subject: KRRTSLFPWLHKPGI
0

Query: SPOT intensity; subject: KIRRSSLMIPNPQQF
0

Query: SPOT intensity; subject: HHKRRPTTIDVPGLT
22
